Hello, the source for this data is patent US20240391954A1, in case you need it.

Here, each record is paired with measured MC4R selectivity vs MC1R data.
assayTarget: human MC1R (Homo sapiens, UniProt Q01726)
Construct: expressed in transfected cells; host or cells: HEK-293 cells stably expressing hMC1R and the GScAMP22F cAMP sensor
Sequence (Q01726 whole entry): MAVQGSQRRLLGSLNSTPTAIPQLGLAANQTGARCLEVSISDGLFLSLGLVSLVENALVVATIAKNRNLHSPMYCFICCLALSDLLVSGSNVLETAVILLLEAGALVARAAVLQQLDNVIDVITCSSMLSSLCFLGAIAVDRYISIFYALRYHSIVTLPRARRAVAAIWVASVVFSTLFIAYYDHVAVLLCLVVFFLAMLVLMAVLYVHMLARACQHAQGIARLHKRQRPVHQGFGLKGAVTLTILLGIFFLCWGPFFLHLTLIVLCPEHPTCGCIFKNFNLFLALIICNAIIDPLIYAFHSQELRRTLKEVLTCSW
experimentNotes: split-luciferase cAMP sensor assay, agonist mode, hMC1R
Format: cell-based
conditionLabel: MC4R versus MC1R
Positions of bridges follow the written chain, without caps; N, C: chain ends. Non-standard residues stand in square brackets, D forms with d. Residues, ends and D or L forms follow the SMILES beside them. Cit = NC(=O)NCCC[C@H](N)C(=O)O; Nle = CCCC[C@H](N)C(=O)O
Please state the value as a number alone, without comment.

{"compound": "CCCC[C@H](NC(=O)[C@H](CCCNC(=N)N)NC(C)=O)C(=O)N[C@H]1CSSC[C@@H](C(N)=O)NC(=O)[C@H](Cc2c[nH]c3ccccc23)NC(=O)[C@H](CCCNC(=N)N)NC(=O)[C@H](Cc2ccccc2)NC(=O)[C@H](CCCNC(N)=O)NC1=O [CTX-1609, Arg-Nle-cyclo(Cys-Cit-Phe-Arg-Trp-Cys)] (Ac-R[Nle]C[Cit]FRWC-NH2; disulfide 3-8 (inferred))", "MC4R selectivity vs MC1R": 4.15}
{"compound": "CCCC[C@H](NC(=O)[C@H](CCCNC(=N)N)NC(C)=O)C(=O)N[C@H]1CSSC[C@@H](C(N)=O)NC(=O)[C@H](Cc2ccccc2)NC(=O)[C@H](CCCNC(=N)N)NC(=O)[C@@H](Cc2ccccc2)NC(=O)[C@H](CCCNC(N)=O)NC1=O [CTX-1626, Arg-Nle-cyclo(Cys-Cit-D-Phe-Arg-Phe-Cys)] (Ac-R[Nle]C[Cit][dF]RFC-NH2; disulfide 3-8 (inferred))", "MC4R selectivity vs MC1R": 3.05}

Moving on to another compound below.
Looking for the measured MC4R selectivity vs MC1R of CC(=O)N[C@@H](CCCNC(=N)N)C(=O)N[C@H]1CSSC[C@@H](C(N)=O)NC(=O)[C@H](Cc2c[nH]c3ccccc23)NC(=O)[C@H](CCCNC(=N)N)NC(=O)[C@@H](Cc2ccccc2)NC(=O)[C@H](CCCNC(N)=O)NC(=O)[C@H](C)NC1=O [CTX-1287, Arg-cyclo(Cys-Ala-Cit-D-Phe-Arg-Trp-Cys)] (Ac-RCA[Cit][dF]RWC-NH2; disulfide 2-8 (inferred)) , can you help?
281
